test system: TCR18; assay: I-Ag7 SABR-II library screen, enrichment score; assay type: cell-based, mouse; conditions: I-Ag7 library; one biological experiment
Answer each item with its documented Enrichment score.
Returns: the value as a bare number; no unit string appended.

Quick one: Enrichment score for AEKVRNLPAGHGLNAQ ?
0.0001149

Also check ALVREGLRNVAAGANP
-1.951e-5

Also check AGGVAVIKAGAATEV
-7.134e-5

Also check AAVEEGIVAGGGVTLL
-8.9534e-5

Also check AKAAVEEGIVAGGGV
-0.0001034

====

system: TCR7; assay: I-Ag7 SABR-II library screen, enrichment score; format: cell-based, mouse; details: sheet TCR7-PZ47; ES = TCRObserved - TCRPredicted; TCRPredicted = LIBObserved x SLOPE + INTERCEPT; SLOPE 0.961246, INTERCEPT 9.5102e-6
metric name: Enrichment score
Returns: the value as a bare number; no unit string appended.

Quick one: Enrichment score for AKAAVEEGIVAGGGV ?
0.0001251

Also check ALVREGLRNVAAGANP
-9.699e-6

Also check AEKVRNLPAGHGLNAQ
5.397e-5

Also check AAVEEGIVAGGGVTLL
1.142e-5

Also check AGGVAVIKAGAATEV
-2.964e-5

====

system: TCR3; test: Single SABR-II co-incubation, NFAT-GFP Jurkat; type: cell-based, mouse; details: TCR 3; Fig 5C; technical replicate 2
metric name: %GFP+CD69+ cells of SABR-NFAT-GFP-Jurkat cells (%)
Numbers only here, please. The scale is %.

Return %GFP+CD69+ cells of SABR-NFAT-GFP-Jurkat cells measured with TCR3 given this sequence: QLELGGSKDSDKGQ [14-mer hybrid insulin peptide spanning the fusion junction, TCR3 hit]
9.28

Also check LQTLALNAARDP
0.89

Also check EQLELGGKADEFPD [14-mer hybrid insulin peptide spanning the fusion junction, TCR3 hit]
37.2

Also check VEQLELGAKQEEKE [14-mer hybrid insulin peptide spanning the fusion junction, TCR3 hit]
80.6

Also check VEQLELGSGKEVKG [14-mer hybrid insulin peptide spanning the fusion junction, TCR3 hit]
77.6

Also check EQLELGGHIEDSGE [14-mer hybrid insulin peptide spanning the fusion junction, TCR3 hit]
28.9

Also check QVEQLELNAARDPN [14-mer hybrid insulin peptide spanning the fusion junction, TCR3 hit]
66.1

====

tested on: TCR3; assay: I-Ag7 SABR-II HIP library screen, enrichment score; assay type: cell-based, mouse; settings: I-Ag7 HIP library; one biological experiment
metric name: Enrichment score
Returns: the value as a bare number; no unit string appended.

Quick one: Enrichment score for EVEDFVKQHLCGSHLVEALYLVCG [theoretical HIP of the I-Ag7 HIP library] ?
-0.0001794

Also check EVEDEVEDPQVAQLELGGGPGAGD [theoretical HIP of the I-Ag7 HIP library]
2.439e-5

Also check EVEDGIVDQCCTSICSLYQLENYC [theoretical HIP of the I-Ag7 HIP library]
1.206e-5

Also check EVEDFVKQHLCGPHLVEALYLVCG [theoretical HIP of the I-Ag7 HIP library]
-1.381e-6

Also check EVEDEVEDPQVEQLELGGSPGDLQ [theoretical HIP of the I-Ag7 HIP library]
0.0001951

====

system: TCR13; assay: I-Ag7 SABR-II library screen, enrichment score; format: cell-based, mouse; conditions: TCR13; TCR_Mean minus PREDICTED_TCR (from LIB_Mean, SLOPE 0.90397, INTERCEPT 2.35655e-5); PZ51
Strictly below 0.0001 in Enrichment score: condition met. Otherwise: condition not met.

Given AEKVRNLPAGHGLNAQ , is recorded Enrichment score strictly lower than 0.0001?
condition not met

Also check AGGVAVIKAGAATEV
condition not met

Also check AAVEEGIVAGGGVTLL
condition not met

Also check ALVREGLRNVAAGANP
condition met

====

system: BDC2.5 TCR; test: I-Ag7 SABR-II library screen, enrichment score; type: cell-based, mouse; conditions: I-Ag7 library; one biological experiment (Ext. Data Fig. 6B)
Answer each item with its documented Enrichment score.
Returns: the value as a bare number; no unit string appended.

Quick one: Enrichment score for AGGVAVIKAGAATEV ?
2.078e-5

Also check AEKVRNLPAGHGLNAQ
6.168e-6

Also check AAVEEGIVAGGGVTLL
0.0001628

Also check ALVREGLRNVAAGANP
-2.567e-5

Also check AKAAVEEGIVAGGGV
-9.939e-5

====

test system: BDC2.5 TCR; experiment: I-Ag7 SABR-II library screen, enrichment score; type: cell-based, mouse; details: I-Ag7 library; EXPT4 of 8
Label scheme for Enrichment score: lower than 0.0008 is false (0), 0.0008 and above is true (1).

Kindly determine if Enrichment score recorded for AKAAVEEGIVAGGGV is above or exactly 0.0008.
false (0)

Also check RTRPLWVRME [top putative hit of BDC2.5 TCR in I-Ag7 library]
false (0)

Also check EKAHRPIWARMDAKK [top putative hit of BDC2.5 TCR in I-Ag7 library]
true (1)

Also check EKAHIPIWARMDAKK [top putative hit of BDC2.5 TCR in I-Ag7 library]
true (1)

Also check AVRPLWVRMEA [top putative hit of BDC2.5 TCR in I-Ag7 library]
false (0)

Also check RRAGDLQTLWSRMDARR
true (1)

Also check EKAHVPIWARMDAKK
false (0)

Also check ALVREGLRNVAAGANP
false (0)

Also check SRLGLWARME [top putative hit of BDC2.5 TCR in I-Ag7 library]
false (0)

Also check EKAHHPIWARMDAKK
false (0)

Also check SRLGLWSRMDQLAKELTAE
true (1)

Also check AAVRPLWVRMEAA [top putative hit of BDC2.5 TCR in I-Ag7 library]
false (0)

====

tested on: BDC2.5 TCR; experiment: I-Ag7 SABR-II library screen, enrichment score; type: cell-based, mouse; details: I-Ag7 library; EXPT1 of 8 biological experiments
metric name: Enrichment score
Returns: the value as a bare number; no unit string appended.

Return Enrichment score measured with BDC2.5 TCR given this sequence: AGGVAVIKAGAATEV
-4.65e-5

Also check RLGLWSRMDQLAKELTAE
0.001771

Also check EKAHRPIWARMDAKK [top putative hit of BDC2.5 TCR in I-Ag7 library]
0.001675

Also check EKAHHPIWARMDAKK
0.000952

Also check SRLGLWSRMDQLAKELTAE
0.002042

Also check SRLGLWVRMEQLAKELTAE
0.001795

Also check SRLGLWARME [top putative hit of BDC2.5 TCR in I-Ag7 library]
0.00089

Also check RTRPLWVRME [top putative hit of BDC2.5 TCR in I-Ag7 library]
0.000766

Also check AVRPLWVRMEA [top putative hit of BDC2.5 TCR in I-Ag7 library]
0.000756

Also check SRLGAWVRME [top putative hit of BDC2.5 TCR in I-Ag7 library]
0.000522

Also check AAVEEGIVAGGGVTLL
-2.818e-5

Also check SRLGLWVRMA [top putative hit of BDC2.5 TCR in I-Ag7 library]
0.000692

====

test system: BDC2.5 TCR; test: I-Ag7 SABR-II library screen, enrichment score; assay type: cell-based, mouse; conditions: I-Ag7 library; EXPT1 of 8 biological experiments
metric name: Enrichment score
Returns: the value as a bare number; no unit string appended.

Return Enrichment score measured with BDC2.5 TCR given this sequence: AVRPLWVRME [top putative hit of BDC2.5 TCR in I-Ag7 library]
0.000751

Also check EKAHIPIWARMDAKK [top putative hit of BDC2.5 TCR in I-Ag7 library]
0.001977

Also check RRAGDLQTLWSRMDARR
0.002517

====

tested on: BDC2.5 TCR; assay: I-Ag7 SABR-II library screen, enrichment score; format: cell-based, mouse; conditions: I-Ag7 library; EXPT5 of 8
metric name: Enrichment score
Returns: the value as a bare number; no unit string appended.

Quick one: Enrichment score for AAVRPLWVRMEAA [top putative hit of BDC2.5 TCR in I-Ag7 library] ?
0.0007

Also check AVRPLWVRMEA [top putative hit of BDC2.5 TCR in I-Ag7 library]
0.000651

Also check SRLGAWVRME [top putative hit of BDC2.5 TCR in I-Ag7 library]
0.000243

Also check RLGLWSRMDQLAKELTAE
0.002428

Also check SRLGLWARME [top putative hit of BDC2.5 TCR in I-Ag7 library]
0.000811

Also check SRLGLWVRMEQLAKELTAE
0.002454

Also check RTRPLWVRME [top putative hit of BDC2.5 TCR in I-Ag7 library]
0.001024

Also check SRLGLWVRME [top putative hit of BDC2.5 TCR in I-Ag7 library]
0.000562

Also check EKAHHPIWARMDAKK
0.001178

Also check EKAHRPIWARMDAKK [top putative hit of BDC2.5 TCR in I-Ag7 library]
0.001924
